Here the recorded pIC50 is given for each entry.
- TEST SYSTEM: hTREX1 (Homo sapiens, UniProt Q9NSU2)
- Sequence (Q9NSU2 whole entry): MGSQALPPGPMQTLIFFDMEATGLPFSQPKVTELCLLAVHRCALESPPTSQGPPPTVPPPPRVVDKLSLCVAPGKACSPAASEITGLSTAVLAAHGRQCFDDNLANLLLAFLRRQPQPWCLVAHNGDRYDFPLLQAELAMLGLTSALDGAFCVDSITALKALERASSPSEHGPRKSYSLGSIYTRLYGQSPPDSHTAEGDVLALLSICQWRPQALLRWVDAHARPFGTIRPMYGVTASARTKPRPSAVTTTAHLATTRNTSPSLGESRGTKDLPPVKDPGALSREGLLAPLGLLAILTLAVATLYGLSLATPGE
- EXPERIMENT NOTES: hTREX1 HCT116 Cell Assay (HCT116 dual cells, Lucia luciferase reporter of Type I interferon induction)
- MEASUREMENT CONTEXT: TREX1i 4 h before pBR322/BstNI transfection, read after 48 h
pIC50: −log10 of the molar value.

Please review the following examples before continuing.
> print(dat)
                                   molecule  measured.value
1  Cc1cnc(C)c(C(c2ccccc2Cl)C(C)c2nc(C(=O)Nc3cnoc3)c(O)c(=O)n2C)n1 (single isomer, unassigned) [Example 120 D2E2]          < 7.00
2  CC(c1nc(C(=O)Nc2cnoc2)c(O)c(=O)n1C)C(c1ccccc1C#N)c1cn(C)nc1C#N (single isomer, unassigned) [Example 10 D1E2]    7.00 to 8.00
3  Cc1cnc(C(c2cc(F)ccc2Cl)C(C)c2nc(C(=O)Nc3cnoc3)c(O)c(=O)n2C)cn1 (single isomer, unassigned) [Example 117 D1E2]          > 8.00
4  CC(c1nc(C(=O)Nc2cnoc2)c(O)c(=O)n1C)C(c1cnn(C)c1)c1cc(F)ccc1C#N (single isomer, unassigned) [Example 14 D1E2]          > 8.00
5  Cc1nn(C)cc1C(c1ccccc1C#N)C(C)c1nc(C(=O)Nc2cnoc2)c(O)c(=O)n1C (single isomer, unassigned) [Example 3 D2E2]          < 7.00

Turning now to a further record.
Lab note: measured pIC50 of CC(c1nc(C(=O)Nc2cnoc2)c(O)c(=O)n1C)C(c1cnn(C(C)C)c1)c1ccccc1C#N (single isomer, unassigned) [Example 105 D1E2] was > 8.00
